- System: Serine/threonine-protein kinase B-raf (Homo sapiens), P15056 [V600E];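 further: mean inhibition of the BRAF V599E mutant, from GSK PKIS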
- Sequence (P15056 whole entry V600E): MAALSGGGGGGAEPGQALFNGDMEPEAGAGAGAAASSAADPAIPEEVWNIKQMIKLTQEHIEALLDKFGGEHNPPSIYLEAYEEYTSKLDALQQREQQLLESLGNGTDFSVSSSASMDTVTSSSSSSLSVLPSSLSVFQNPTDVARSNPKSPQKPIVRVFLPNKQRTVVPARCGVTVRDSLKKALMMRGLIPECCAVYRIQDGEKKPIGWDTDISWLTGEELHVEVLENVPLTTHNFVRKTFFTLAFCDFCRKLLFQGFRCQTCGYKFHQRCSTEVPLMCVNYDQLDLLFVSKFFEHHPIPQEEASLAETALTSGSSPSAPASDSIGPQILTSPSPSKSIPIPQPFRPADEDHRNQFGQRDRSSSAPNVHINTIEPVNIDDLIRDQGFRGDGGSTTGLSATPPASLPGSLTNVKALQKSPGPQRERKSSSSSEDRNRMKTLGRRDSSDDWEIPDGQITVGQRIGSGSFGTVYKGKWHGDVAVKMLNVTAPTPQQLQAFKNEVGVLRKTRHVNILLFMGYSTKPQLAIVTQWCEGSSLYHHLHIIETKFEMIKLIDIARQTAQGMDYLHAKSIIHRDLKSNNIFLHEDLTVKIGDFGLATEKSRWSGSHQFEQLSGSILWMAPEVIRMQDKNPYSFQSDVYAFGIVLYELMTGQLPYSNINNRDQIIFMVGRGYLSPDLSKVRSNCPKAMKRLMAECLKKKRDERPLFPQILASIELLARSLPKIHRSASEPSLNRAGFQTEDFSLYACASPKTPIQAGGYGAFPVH
- Study Conditions: at 0.1 µM
- Description: GSK_PKIS: BRAF (V599E mutant) mean inhibition at 0.1 uM [Nanosyn]

>  <Molecule>
C[C@@H](Oc1cc(-n2cnc3ccc(OC4CCN(C)CC4)cc32)sc1C(N)=O)c1ccccc1Cl

>  <Readout Unit>
%

>  <inhibition>
4.5

$$$$
>  <Molecule>
FC(F)(F)c1cccc(Nc2nccc(-c3cnn4nc(-c5ccccc5)ccc34)n2)c1

>  <Readout Unit>
%

>  <inhibition>
2.72

$$$$
>  <Molecule>
NC(=O)c1cc(-c2ccc(F)cc2)cc(-c2ccncc2)c1N

>  <Readout Unit>
%

>  <inhibition>
7.49

$$$$
>  <Molecule>
COc1ccc(C2=C(N3CCc4ccccc43)C(=O)NC2=O)cc1

>  <Readout Unit>
%

>  <inhibition>
6.3

$$$$
>  <Molecule>
NC(=O)c1cc(-c2ccncc2)cc(-c2ccccc2)c1N

>  <Readout Unit>
%

>  <inhibition>
8.18

$$$$
>  <Molecule>
Nc1nccc(-c2c(-c3ccc(F)cc3)ncn2C2CCC(O)CC2)n1 (stereo not given)

>  <Readout Unit>
%

>  <inhibition>
-3.35

$$$$
>  <Molecule>
COc1cc(Nc2ncc(-c3ccccc3)o2)cc(OC)c1OC

>  <Readout Unit>
%

>  <inhibition>
-1.66

$$$$
>  <Molecule>
O=C1Nc2ccccc2/C1=C/Nc1ccc(-n2cncn2)cc1

>  <Readout Unit>
%

>  <inhibition>
7.05

$$$$
>  <Molecule>
CN(C)CCCNc1nccc(-c2c(-c3ccc(F)cc3)nn3cc(C(F)(F)F)ccc23)n1

>  <Readout Unit>
%

>  <inhibition>
2.52

$$$$
>  <Molecule>
O=C(NCC1CC1)c1ccc(-c2cccc(C(=O)NC3CC3)c2)cc1

>  <Readout Unit>
%

>  <inhibition>
1.59

$$$$
